- STUDY_SYSTEM: CRTH2 (Homo sapiens)
- TEST_DESCRIPTION: FRET based competitive immunoassay (cAMP) in CRTH2 expressing CHO cells
- ASSAY_CONDITIONS: CRTH2 expressing CHO cells incubated with forskolin and PGD2; Eu3+ cryptate-labeled anti-cAMP and d2-labeled cAMP
REPORTED_ENDPOINT: IC50 (nM)
Numbers only, in nM.

Below: 4 molecules and their reported IC50.
[
  {
    "COMPOUND_STRUCTURE_STRING": "Cc1c(-c2nn(Cc3c(F)cccc3F)c(=O)c3ccccc23)c2cc(F)ccc2n1CC(=O)O",
    "IC50 (nM)": 7
  },
  {
    "COMPOUND_STRUCTURE_STRING": "Cc1c(-c2ccc(=O)n(Cc3ccccc3)n2)c2cc(F)ccc2n1CC(=O)O",
    "IC50 (nM)": 6
  },
  {
    "COMPOUND_STRUCTURE_STRING": "Cc1c(-c2ccc(=O)n(Cc3ccccc3)n2)c2cc(Cl)cc(Cl)c2n1CC(=O)O",
    "IC50 (nM)": 1000
  },
  {
    "COMPOUND_STRUCTURE_STRING": "Cc1c(-c2ccc(=O)n(Cc3cccc(F)c3C(F)(F)F)n2)c2cc(Cl)ccc2n1CC(=O)O",
    "IC50 (nM)": 55
  }
]

Pending molecule:
Using the record for Cc1c(-c2ccc(=O)n(CCOc3ccc(Cl)cc3)n2)c2cc(Cl)ccc2n1CC(=O)O , state its measured IC50.
16

====

For each entry below, report its pIC50 value.
- STUDY_SYSTEM: CRTH2 (Homo sapiens, UniProt Q9Y5Y4)
- Sequence (Q9Y5Y4 whole entry): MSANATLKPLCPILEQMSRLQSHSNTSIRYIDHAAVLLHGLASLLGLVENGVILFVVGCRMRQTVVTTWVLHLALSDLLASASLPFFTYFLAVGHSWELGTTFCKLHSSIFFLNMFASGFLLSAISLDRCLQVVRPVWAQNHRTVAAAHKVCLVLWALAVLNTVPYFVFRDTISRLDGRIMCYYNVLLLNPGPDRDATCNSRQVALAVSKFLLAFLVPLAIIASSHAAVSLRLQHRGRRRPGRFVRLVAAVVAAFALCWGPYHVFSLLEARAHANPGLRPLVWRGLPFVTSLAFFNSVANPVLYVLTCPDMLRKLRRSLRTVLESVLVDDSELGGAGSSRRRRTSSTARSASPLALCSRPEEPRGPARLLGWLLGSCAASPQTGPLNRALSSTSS
- TEST_DESCRIPTION: FRET based competitive immunoassay (cAMP) in CRTH2 expressing CHO cells
- ASSAY_CONDITIONS: CRTH2 expressing CHO cells incubated with forskolin and PGD2; Eu3+ cryptate-labeled anti-cAMP and d2-labeled cAMP
Answers are plain numbers, as −log10 of the molar value.

A selection of reference data follows.
[
  {
    "COMPOUND_STRUCTURE_STRING": "Cc1c(-c2ccc(=O)n(CC(F)(F)F)c2)c2cc(Cl)ccc2n1CC(=O)O",
    "STUDY_SYSTEM": "CRTH2 (Homo sapiens, UniProt Q9Y5Y4)",
    "pIC50": 6.62
  },
  {
    "COMPOUND_STRUCTURE_STRING": "Cc1c(-c2ccc(=O)n(Cc3ccccc3)c2)c2ccccc2n1CC(=O)O",
    "STUDY_SYSTEM": "CRTH2 (Homo sapiens, UniProt Q9Y5Y4)",
    "pIC50": 7.38
  },
  {
    "COMPOUND_STRUCTURE_STRING": "Cc1c(-c2ccc(=O)n(C(C)C)n2)c2cc(F)cc(Cl)c2n1CC(=O)O",
    "STUDY_SYSTEM": "CRTH2 (Homo sapiens, UniProt Q9Y5Y4)",
    "pIC50": 5.97
  }
]

# context switch: different compound, same pIC50
State measured pIC50 of the compound Cc1c(-c2nn(Cc3cc(F)ccc3F)c(=O)c3ccccc23)c2cc(Cl)ccc2n1CC(=O)O with CRTH2 (Homo sapiens, UniProt Q9Y5Y4).
7.92

====

- STUDY_SYSTEM: UniProtKB Q9Y5Y4
- TEST_DESCRIPTION: FRET based competitive immunoassay (cAMP) in CRTH2 expressing CHO cells
- ASSAY_CONDITIONS: CRTH2 expressing CHO cells incubated with forskolin and PGD2; Eu3+ cryptate-labeled anti-cAMP and d2-labeled cAMP
pIC50: −log10 of the molar value.
Decision: pIC50 compared against 8; not below it gives 1, below it gives -1.

Example entries begin here.
[
  {
    "COMPOUND": "Cc1c(Cc2ccc(=O)n(Cc3cccc(F)c3F)n2)c2cc(F)ccc2n1CC(=O)O",
    "CLASS_ASSIGNMENT": 1
  },
  {
    "COMPOUND": "Cc1c(-c2nn(CCCC(F)(F)F)c(=O)c3ccccc23)c2cc(F)ccc2n1CC(=O)O",
    "CLASS_ASSIGNMENT": 1
  },
  {
    "COMPOUND": "Cc1c(-c2nn(Cc3ccc(S(C)(=O)=O)cc3)c(=O)c3ccccc23)c2ccccc2n1CC(=O)O",
    "CLASS_ASSIGNMENT": -1
  }
]

Say whether Cc1c(-c2ccc(=O)n(CC(C)(C)C)n2)c2cc(F)ccc2n1CC(=O)O shows pIC50 of 8 or more.
-1

Form field: pIC50 at least 8? Entry: Cc1c(-c2nn(Cc3ccc(C(F)(F)F)cc3)c(=O)c3ccccc23)c2ccccc2n1CC(=O)O
-1

Check if pIC50 >= 8 (inclusive). Item: Cc1c(-c2ccc(=O)n(Cc3cccc(F)c3F)c2)c2cc(F)ccc2n1CC(=O)NS(C)(=O)=O
-1

Please check the record Cc1nnc(Cn2nc(-c3c(C)n(CC(=O)O)c4ccc(F)cc34)ccc2=O)[nH]1 [Example 260b] and state if its pIC50 is at or above 8.
-1

====

- STUDY_SYSTEM: CRTH2 (Homo sapiens, UniProt Q9Y5Y4)
- TEST_DESCRIPTION: FRET based competitive immunoassay (cAMP) in CRTH2 expressing CHO cells
- ASSAY_CONDITIONS: CRTH2 expressing CHO cells incubated with forskolin and PGD2; Eu3+ cryptate-labeled anti-cAMP and d2-labeled cAMP
I'd appreciate it if you marked entries T when IC50 is lower than 7 nM and F when it is not.

Find out if reported IC50 for Cc1c(-c2cn(Cc3ccccc3)c(=O)c3ccccc23)c2ccccc2n1CC(=O)O is less than 7 nM
F

Record Cc1c(Cc2ccc(=O)n(Cc3c(F)cccc3F)n2)c2cc(F)ccc2n1CC(=O)O : is its IC50 strictly below 7 nM?
T

====

- STUDY_SYSTEM: CRTH2 (Homo sapiens, UniProt Q9Y5Y4)
- TEST_DESCRIPTION: FRET based competitive immunoassay (cAMP) in CRTH2 expressing CHO cells
- ASSAY_CONDITIONS: CRTH2 expressing CHO cells incubated with forskolin and PGD2; Eu3+ cryptate-labeled anti-cAMP and d2-labeled cAMP
pIC50: −log10 of the molar value.
Label rule, in plain words: pIC50 of 7 and up is satisfied, under 7 is not satisfied.

[
  {
    "COMPOUND_STRUCTURE_STRING": "Cc1c(Cc2ccc(=O)n(Cc3ccccc3)c2)c2cc(Cl)ccc2n1CC(=O)O",
    "CLASS_ASSIGNMENT": "satisfied"
  }
]

Answer whether pIC50 of Cc1c(-c2ccc(=O)n(Cc3cccc(C(F)(F)F)c3)n2)c2cc(Cl)ccc2n1CC(=O)O is greater than or equal to 7.
satisfied

Tell me whether pIC50 is at least 7 here: Cc1ccc2c(c1)c(-c1nn(Cc3ccccc3)c(=O)c3ccccc13)c(C)n2CC(=O)O
satisfied

Please indicate if the recorded pIC50 for Cc1c(-c2ccc(=O)n(Cc3nc4ccccc4s3)n2)c2cc(F)ccc2n1CC(=O)O meets or exceeds 7.
satisfied

Assess whether reported pIC50 for Cc1c(Cc2ccc(=O)n(CCCC(F)(F)F)c2)c2cc(F)ccc2n1CC(=O)O sits at 7 or higher.
not satisfied

pIC50 >= 7 for Cc1c(-c2ccc(=O)n(Cc3ccccc3)n2)c2cc(S(C)(=O)=O)cc(F)c2n1CC(=O)O ?
not satisfied

Could you tell me if the measured pIC50 of Cc1c(-c2ccc(=O)n(CC(F)(F)F)n2)c2cc(F)ccc2n1CC(=O)O reaches 7 or more?
not satisfied

====

- STUDY_SYSTEM: CRTH2 (Homo sapiens)
- TEST_DESCRIPTION: FRET based competitive immunoassay (cAMP) in CRTH2 expressing CHO cells
- ASSAY_CONDITIONS: CRTH2 expressing CHO cells incubated with forskolin and PGD2; Eu3+ cryptate-labeled anti-cAMP and d2-labeled cAMP
REPORTED_ENDPOINT: pIC50
Answers are plain numbers, as −log10 of the molar value.

Consider the worked cases shown below.
[
  {
    "COMPOUND_STRUCTURE_STRING": "Cc1c(Cc2ccc(=O)n(Cc3c(F)cccc3F)c2)c2cc(F)ccc2n1CC(=O)O",
    "pIC50": 8.15
  },
  {
    "COMPOUND_STRUCTURE_STRING": "Cc1c(-c2nn(Cc3ccncc3F)c(=O)c3ccccc23)c2cc(F)ccc2n1CC(=O)O",
    "pIC50": 8.30
  },
  {
    "COMPOUND_STRUCTURE_STRING": "Cc1c(-c2nn(CCOc3ccccc3)c(=O)c3ccccc23)c2cc(F)ccc2n1CC(=O)O",
    "pIC50": 9.00
  },
  {
    "COMPOUND_STRUCTURE_STRING": "Cc1c(-c2ccc(=O)n(C)n2)c2cc(F)ccc2n1CC(=O)O",
    "pIC50": 5.60
  },
  {
    "COMPOUND_STRUCTURE_STRING": "Cc1c(-c2nn(CC(O)(C(F)(F)F)C(F)(F)F)c(=O)c3ccccc23)c2cc(F)ccc2n1CC(=O)O",
    "pIC50": 7.27
  }
]

State the recorded pIC50 for every item in the following list.
1. Cc1c(-c2nn(Cc3c(F)cccc3F)c(=O)c3ccccc23)c2ccccc2n1CC(=O)O
2. Cc1c(Cc2ccc(=O)n(Cc3ccccc3)c2)c2ccccc2n1CC(=O)O
3. Cc1c(-c2nn(C3CC3)c(=O)c3ccccc23)c2cc(F)ccc2n1CC(=O)O
4. COC(=O)Cn1c(C)c(-c2ccc(=O)n(Cc3ccc(F)cc3F)n2)c2ccccc21
5. Cc1c(-c2ccc(=O)n(CC(F)(F)F)c2)c2cc(F)ccc2n1CC(=O)O

1. 7.40
2. 7.09
3. 7.66
4. 6.82
5. 6.93
